Recorded EC50 wt/EC50 var, ISRE-luciferase reporter assay in 293T cells by entry
Target: T1, type I interferon receptor (UniProt P17181 28-557; P48551 27-515, limits assumed)
T1 sequence (looked up) 1: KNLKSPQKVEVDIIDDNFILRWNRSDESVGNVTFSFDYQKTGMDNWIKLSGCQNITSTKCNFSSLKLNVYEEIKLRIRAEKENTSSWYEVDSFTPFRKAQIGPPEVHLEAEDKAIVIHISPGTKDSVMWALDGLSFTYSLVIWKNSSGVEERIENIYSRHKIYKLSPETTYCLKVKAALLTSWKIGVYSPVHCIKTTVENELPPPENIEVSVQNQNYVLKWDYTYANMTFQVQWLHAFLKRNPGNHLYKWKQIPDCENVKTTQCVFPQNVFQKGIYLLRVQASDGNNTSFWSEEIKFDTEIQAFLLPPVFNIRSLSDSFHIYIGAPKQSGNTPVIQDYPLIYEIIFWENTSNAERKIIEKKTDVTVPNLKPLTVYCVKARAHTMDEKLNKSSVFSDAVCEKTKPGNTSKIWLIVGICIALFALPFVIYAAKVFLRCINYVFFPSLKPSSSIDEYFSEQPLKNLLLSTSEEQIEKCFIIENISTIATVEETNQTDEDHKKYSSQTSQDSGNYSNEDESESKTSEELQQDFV
T1 sequence (looked up) 2: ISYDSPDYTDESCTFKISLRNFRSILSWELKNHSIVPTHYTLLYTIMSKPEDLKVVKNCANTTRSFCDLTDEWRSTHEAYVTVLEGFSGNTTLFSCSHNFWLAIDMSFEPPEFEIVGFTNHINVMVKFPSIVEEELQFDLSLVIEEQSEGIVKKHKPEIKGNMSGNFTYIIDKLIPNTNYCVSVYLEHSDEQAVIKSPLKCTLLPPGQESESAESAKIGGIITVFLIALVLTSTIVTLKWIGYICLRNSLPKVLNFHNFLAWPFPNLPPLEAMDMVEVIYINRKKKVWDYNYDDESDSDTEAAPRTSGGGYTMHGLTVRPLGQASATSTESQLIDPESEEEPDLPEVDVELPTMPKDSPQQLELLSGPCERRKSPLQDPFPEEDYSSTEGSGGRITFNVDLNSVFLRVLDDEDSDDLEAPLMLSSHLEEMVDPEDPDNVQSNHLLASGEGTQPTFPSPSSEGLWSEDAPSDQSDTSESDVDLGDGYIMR
Assay: cell-based or functional assay
The reply should be a number in ratio, with the unit left off.

Retrieve EC50 wt/EC50 var, ISRE-luciferase reporter assay in 293T cells measured for IFB1_36 (ligand) MGSSHHHHHHSSGLVPRGSHMSYNLLGELQRSSNFQSQKLLWQLNGRLEYCLKDRMNFDIPEEIKQLQQFQKEDAALTIYEMLQNIFAIFRQDSSSTGWNETIVENLLANVYHQINHLKTVLEEKLEKEDNTRGKEMSSLHLKRYYGRILHYLKAKEYSHCAWTIVRVEILRNFYFINRLTGYLRN and print it.
18

Retrieve EC50 wt/EC50 var, ISRE-luciferase reporter assay in 293T cells measured for IFB1_2 (ligand) MGSSHHHHHHSSGLVPRGSHMSYNQLGFLQRSSNFQSQKLLWQLNGRLEYCLKDRMNFDIPEEIKQLQQFQKEDAALTIYEMLQNIFAIFRQDSSSTGWNETIVENLLANVYHQINHLKTVLEEKLEKEDFTRGKLMSSLHLKRYYGRILHYLKAKEYSHCAWTIVRVEILRNFYFINRLTGYLRN and print it.
12.4

Retrieve EC50 wt/EC50 var, ISRE-luciferase reporter assay in 293T cells measured for IFN1_1 (ligand) MGSSHHHHHHSSGLVPRGSHMSYNLLGFLQRSSNFQSQKLLWQLNGRLEYCLKDRMNFDIPEEIKQLQQFQKEDAALTIYEMLQNIFAIFRQDSSSTGWNETIVENLLANVYHQINHLKTVLEEKLEKEDFTRGKLMSSLHLKRYYGRILHYLKAKEYSHCAWTIVRVEILRNFYFINRLTGYLRN and print it.
1

Retrieve EC50 wt/EC50 var, ISRE-luciferase reporter assay in 293T cells measured for IFB1_7 (ligand) MGSSHHHHHHSSGLVPRGSHMSYNQLGELQRSSNFQSQKLLWQLNGRLEYCLKDRMNFDIPEEIKQLQQFQKEDAALTIYEMLQNIFAIFRQDSSSTGWNETIVENLLANVYHQINHLKTVLEEKLEKEDFTRGKLMSSLHLKRYYGRILHYLKAKEYSHCAWTIVRVEILRNFYFINRLTGYLRN and print it.
29.6
